# measured_on: UniProt Q07817
# assay_method_text: TR-FRET binding assay, GST-Bcl-XL with F-Bak peptide probe
# conditions_used: TR-FRET Binding Affinity, GST-Bcl-XL, F-Bak peptide probe
pKi: −log10 of the molar value.
Some compounds, each annotated with its measured pKi.
readout_label: pKi

* CC1(C)CCC(CN2CCN(c3ccc(C(=O)NS(=O)(=O)c4ccc(N[C@@H]5CCN(CC(F)F)C5)c([N+](=O)[O-])c4)c(Oc4cccc5[nH]cnc45)c3)CC2)=C(c2ccc(Cl)cc2)C1 [Example 407] | 7.13
* CN1CCN(CCCNc2ccc(S(=O)(=O)NC(=O)c3ccc(N4CCN(CC5=C(c6ccc(Cl)cc6)CC(C)(C)CC5)CC4)cc3Oc3cccc4[nH]ccc34)cc2[N+](=O)[O-])CC1 [Example 99] | 8.26
* CC1(C)CCC(CN2CCN(c3ccc(C(=O)NS(=O)(=O)c4ccc(NCC5(N)CCOCC5)c([N+](=O)[O-])c4)c(Oc4cccc5[nH]ccc45)c3)CC2)=C(c2ccc(Cl)cc2)C1 [Example 176] | 7.49
* CC1(C)CCC(CN2CCN(c3ccc(C(=O)NS(=O)(=O)c4cnc(OCC5CCOCC5)c(Br)c4)c(Oc4cccc5[nH]ccc45)c3)CC2)=C(c2ccc(Cl)cc2)C1 [Example 364] | 7.12
* CN(C)CCCNc1ccc(S(=O)(=O)NC(=O)c2ccc(N3CCN(Cc4ccccc4-c4ccc(Cl)cc4)CC3)cc2Oc2cccc3cnccc23)cc1[N+](=O)[O-] [Example 42] | 8.42
* CN(C)CCOc1ccc(-c2ccc(Cl)cc2)c(CN2CCN(c3ccc(C(=O)NS(=O)(=O)c4ccc(NCC5CCOCC5)c(S(=O)(=O)C(F)(F)F)c4)c(Oc4ccccc4)c3)CC2)c1 [Example 120] | 7.00
* CC(C)N(CCOc1ccc(-c2ccc(Cl)cc2)c(CN2CCN(c3ccc(C(=O)NS(=O)(=O)c4ccc(NCC5CCOCC5)c([N+](=O)[O-])c4)c(Oc4ccccc4)c3)CC2)c1)C(C)C [Example 139] | 7.98

---

# measured_on: GST-Bcl-2 (Homo sapiens, UniProt P10415)
# Sequence (P10415 whole entry): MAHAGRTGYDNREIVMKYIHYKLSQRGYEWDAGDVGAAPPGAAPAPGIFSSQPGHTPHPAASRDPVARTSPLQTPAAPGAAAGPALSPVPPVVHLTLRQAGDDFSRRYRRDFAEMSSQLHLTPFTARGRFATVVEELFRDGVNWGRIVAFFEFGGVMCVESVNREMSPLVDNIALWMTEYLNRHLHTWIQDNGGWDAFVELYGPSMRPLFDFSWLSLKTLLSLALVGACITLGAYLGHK
# assay_method_text: TR-FRET binding assay, GST-Bcl-2 with F-Bak peptide probe
# conditions_used: TR-FRET Binding Affinity, GST-Bcl-2, F-Bak peptide probe
Assign classes using reported Ki values and the ranges bin 0 = under 0.1 nM, bin 1 = from 0.1 nM up to 2 nM, bin 2 = 2 nM and over, please.

* COCCOCCN1CC[C@@H](Nc2ccc(S(=O)(=O)NC(=O)c3ccc(N4CCN(CC5=C(c6ccc(Cl)cc6)CC(C)(C)CC5)CC4)cc3Oc3cccc4[nH]cnc34)cc2[N+](=O)[O-])C1 [Example 429] | bin 0
* CC1(C)CCC(CN2CCN(c3ccc(C(=O)NS(=O)(=O)c4ccc(NCC5CN(C6CC6)CCO5)c([N+](=O)[O-])c4)c(Oc4cccc5[nH]ncc45)c3)CC2)=C(c2ccc(Cl)cc2)C1 (stereo not shown) [Example 411] | bin 0
* CC1(C)CCC(CN2CCN(c3ccc(C(=O)NS(=O)(=O)c4ccc(NCCCN5CCNC(=O)C5)c([N+](=O)[O-])c4)c(Oc4cccc5[nH]ccc45)c3)CC2)=C(c2ccc(Cl)cc2)C1 [Example 223] | bin 1
* CC1(C)CCC(CN2CCN(c3ccc(C(=O)NS(=O)(=O)c4ccc(CCC5CCOCC5)c([N+](=O)[O-])c4)c(Oc4ccc5[nH]ccc5c4)c3)CC2)=C(c2ccc(Cl)cc2)C1 [Example 296] | bin 1
* CC1(C)CCC(CN2CCN(c3ccc(C(=O)NS(=O)(=O)c4cnc(NCC5CCOCC5)c(Br)c4)c(Oc4cccc5[nH]ccc45)c3)CC2)=C(c2ccc(Cl)cc2)C1 [Example 325] | bin 2
* CC1(C)CCC(CN2CCN(c3ccc(C(=O)NS(=O)(=O)c4ccc(NCCCN5CCNC(=O)C5)c([N+](=O)[O-])c4)c(Oc4ccc5[nH]ccc5c4)c3)CC2)=C(c2ccc(Cl)cc2)C1 [Example 222] | bin 1
* CC1(C)CCC(CN2CCN(c3ccc(C(=O)NS(=O)(=O)c4ccc(NCCC5CCOCC5)c([N+](=O)[O-])c4)c(Oc4ccc5[nH]ccc5c4)c3)CC2)=C(c2ccc(Cl)cc2)C1 [Example 291] | bin 1
* CC1(C)CCC(CN2CCN(c3ccc(C(=O)NS(=O)(=O)c4ccc(OC[C@H]5COCCO5)c([N+](=O)[O-])c4)c(Oc4ccc5[nH]ccc5c4)c3)CC2)=C(c2ccc(Cl)cc2)C1 [Example 346] | bin 0
* CN(C)CCCNc1ccc(S(=O)(=O)NC(=O)c2ccc(N3CCN(Cc4ccccc4-c4ccc(Cl)cc4)CC3)cc2Oc2ccccc2)cc1C#N [Example 90] | bin 2

---

# measured_on: GST-Bcl-XL (Homo sapiens, UniProt Q07817)
# Sequence (Q07817 whole entry): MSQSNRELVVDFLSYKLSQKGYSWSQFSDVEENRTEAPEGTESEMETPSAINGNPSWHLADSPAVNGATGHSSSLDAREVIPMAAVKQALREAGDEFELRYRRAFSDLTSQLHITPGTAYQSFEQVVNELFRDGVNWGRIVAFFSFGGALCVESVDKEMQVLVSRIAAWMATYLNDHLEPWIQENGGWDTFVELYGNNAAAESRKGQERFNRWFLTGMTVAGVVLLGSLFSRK
# assay_method_text: TR-FRET binding assay, GST-Bcl-XL with F-Bak peptide probe
# conditions_used: TR-FRET Binding Affinity, GST-Bcl-XL, F-Bak peptide probe
Output yes (1) for records whose Ki is lower than 30 nM, no (0) for records at or above 30 nM.

- CN(C)CCCNc1ccc(S(=O)(=O)NC(=O)c2ccc(N3CCN(Cc4ccccc4-c4ccc(Cl)cc4)CC3)cc2Oc2ccccc2)cc1[N+](=O)[O-] [Example 154]: yes (1)
- CN1CCC(Nc2ccc(S(=O)(=O)NC(=O)c3ccc(N4CCN(CC5=C(c6ccc(Cl)cc6)CC(C)(C)CC5)CC4)cc3Oc3ccc4[nH]ccc4c3)cc2S(=O)(=O)C(F)(F)Cl)CC1 [Example 74]: yes (1)
- CN(C)CC(=O)N1CCO[C@@H](COc2ncc(S(=O)(=O)NC(=O)c3ccc(N4CCN(CC5=C(c6ccc(Cl)cc6)CC(C)(C)CC5)CC4)cc3Oc3cccc4[nH]cnc34)cc2Cl)C1 [Example 424]: yes (1)
- CN1CCC(CNc2ccc(S(=O)(=O)NC(=O)c3ccc(N4CCN(CC5=C(c6ccc(Cl)cc6)CC(C)(C)CC5)CC4)cc3Oc3ccc4[nH]ccc4c3)cc2[N+](=O)[O-])CC1 [Example 104]: no (0)
- CC(c1ccccc1-c1ccc(Cl)cc1)N1CCN(c2ccc(C(=O)NS(=O)(=O)c3ccc(NCCCN4CCOCC4)c([N+](=O)[O-])c3)c(Oc3cccc4[nH]ccc34)c2)CC1 (centres unmarked) [Example 247]: yes (1)

---

# measured_on: GST-Bcl-2 (Homo sapiens, UniProt P10415)
# assay_method_text: TR-FRET binding assay, GST-Bcl-2 with F-Bak peptide probe
# conditions_used: TR-FRET Binding Affinity, GST-Bcl-2, F-Bak peptide probe
# Method: Tb-anti-GST antibody was purchased from Invitrogen (Catalog No. PV4216). […] The samples were then mixed on a shaker for 1 minute and incubated for an additional 3 hours at room temperature. […] Fluorescence was measured on the ENVISION plate reader (Perkin Elmer) using a 340/35 nm excitation filter and 520/525 (F-Bak peptide) and 495/510 nm (Tb-labeled […] antibody) emission filters. […]
pKi: −log10 of the molar value.
Some compounds, each annotated with its measured pKi.
readout_label: pKi

* CN(C)CCOc1cccc(-c2ccc(Cl)cc2)c1CN1CCN(c2ccc(C(=O)NS(=O)(=O)c3ccc(NC4CCN(C)CC4)c([N+](=O)[O-])c3)c(Oc3cccc4[nH]ccc34)c2)CC1 [Example 205] | 11.30
* CC1(C)CCC(CN2CCN(c3ccc(C(=O)NS(=O)(=O)c4ccc(NCC5(N6CCOCC6)CCCCC5)c([N+](=O)[O-])c4)c(Oc4ccc5[nH]ccc5c4)c3)CC2)=C(c2ccc(Cl)cc2)C1 [Example 229] | 7.31
* COc1ccc(S(=O)(=O)NC(=O)c2ccc(N3CCN(Cc4ccccc4-c4ccc(Cl)cc4)CC3)cc2Oc2ccccc2)cc1 [Example 60] | 7.72
* CC1(C)CCC(CN2CCN(c3ccc(C(=O)NS(=O)(=O)c4ccc(NC5CCN(CC6CC6)CC5)c([N+](=O)[O-])c4)c(Oc4ccc5[nH]ccc5c4)c3)CC2)=C(c2ccc(Cl)cc2)C1 [Example 214] | 10.09
* CN(C)CCCOc1ccc(S(=O)(=O)NC(=O)c2ccc(N3CCN(CC4=C(c5ccc(Cl)cc5)CC(C)(C)CC4)CC3)cc2Oc2ccc3[nH]ccc3c2)cc1[N+](=O)[O-] [Example 100] | 9.94
* O=C(NS(=O)(=O)c1ccc(NCC2CCOCC2)c([N+](=O)[O-])c1)c1ccc(N2CCN(Cc3cc(OCCN4CCOCC4)ccc3-c3ccc(Cl)cc3)CC2)cc1Oc1ccc2[nH]ccc2c1 [Example 127] | 9.34
* CC1(C)CCC(CN2CCN(c3ccc(C(=O)NS(=O)(=O)c4ccc(OC5CCN(C6CCOCC6)CC5)c([N+](=O)[O-])c4)c(Oc4ccc5[nH]ccc5c4)c3)CC2)=C(c2ccc(Cl)cc2)C1 [Example 389] | 10.01
* O=C(NS(=O)(=O)c1ccc(NCC2CCOCC2)c([N+](=O)[O-])c1)c1ccc(N2CCN(Cc3ccc(C(F)(F)F)cc3-c3ccc(Cl)cc3)CC2)cc1Oc1ccc2[nH]ccc2c1 [Example 339] | 7.85
* CC1(C)CCC(CN2CCN(c3ccc(C(=O)NS(=O)(=O)c4ccc(NCCc5ccc(S(N)(=O)=O)cc5)c([N+](=O)[O-])c4)c(Oc4ccc5[nH]ccc5c4)c3)CC2)=C(c2ccc(Cl)cc2)C1 [Example 376] | 7.65
* CC1(C)CCC(CN2CCN(c3ccc(C(=O)NS(=O)(=O)c4ccc(NCC5(N)CCOCC5)c([N+](=O)[O-])c4)c(Oc4ccc5[nH]ccc5c4)c3)CC2CO)=C(c2ccc(Cl)cc2)C1 (centres unmarked) [Example 237] | 9.40
* CC1(C)CCC(CN2CCN(c3ccc(C(=O)NS(=O)(=O)c4ccc(NCC5CN(C6CC6)CCO5)c([N+](=O)[O-])c4)c(Oc4cccc5[nH]cnc45)c3)CC2)=C(c2ccc(Cl)cc2)C1 (centres unmarked) [Example 432] | 10.64
* CN1CCN(CCCNc2ccc(S(=O)(=O)NC(=O)c3ccc(N4CCN(CC5=C(c6ccc(Cl)cc6)CC(C)(C)CC5)CC4)cc3Oc3cccc4[nH]ccc34)cc2[N+](=O)[O-])CC1 [Example 99] | 10.40
* CC1(C)CCC(CN2CCN(c3ccc(C(=O)NS(=O)(=O)c4ccc(NC5CCN(C6CCOCC6)CC5)c([N+](=O)[O-])c4)c(Oc4ccc5[nH]ccc5c4)c3)CC2)=C(c2ccc(Cl)cc2)C1 [Example 173] | 9.97
* O=C(NS(=O)(=O)c1ccc(NCC2CCOCC2)c([N+](=O)[O-])c1)c1ccc(N2CCN(Cc3cc(N4CCOCC4)ccc3-c3ccc(Cl)cc3)CC2)cc1Oc1cccc2[nH]ccc12 [Example 198] | 8.40
* CN1CCC(O)(CCNc2ccc(S(=O)(=O)NC(=O)c3ccc(N4CCN(CC5=C(c6ccc(Cl)cc6)CC(C)(C)CC5)CC4)cc3Oc3ccc4[nH]ccc4c3)cc2[N+](=O)[O-])CC1 [Example 211] | 11.05
* CC1(C)CCC(CN2CCN(c3ccc(C(=O)NS(=O)(=O)c4ccc(N[C@H]5CC[C@H](N6CCOCC6)CC5)c([N+](=O)[O-])c4)c(Oc4cccc5[nH]ncc45)c3)CC2)=C(c2ccc(Cl)cc2)C1 [Example 402] | 10.52
* CC1(C)CN(c2ccc(S(=O)(=O)NC(=O)c3ccc(N4CCN(Cc5ccccc5-c5ccc(Cl)cc5)CC4)cc3Oc3ccccc3)cc2)C1=O [Example 30] | 6.99
* CC1(C)CCC(CN2CCN(c3ccc(C(=O)NS(=O)(=O)c4ccc(NC5CCN(C6CCOCC6)CC5)c([N+](=O)[O-])c4)c(Nc4cccnc4)c3)CC2)=C(c2ccc(Cl)cc2)C1 [Example 397] | 7.64
* CN1CC(Nc2ccc(S(=O)(=O)NC(=O)c3ccc(N4CCN(CC5=C(c6ccc(Cl)cc6)CC(C)(C)CC5)CC4)cc3Oc3ccc4[nH]ccc4c3)cc2[N+](=O)[O-])CC1=O (centres unmarked) [Example 281] | 10.12
